The origin of these recorded values is ChEMBL document CHEMBL1961873.

# measurement_target: Tyrosine-protein kinase Tec (Homo sapiens) (UniProt P42680)
# Sequence (P42680 whole entry): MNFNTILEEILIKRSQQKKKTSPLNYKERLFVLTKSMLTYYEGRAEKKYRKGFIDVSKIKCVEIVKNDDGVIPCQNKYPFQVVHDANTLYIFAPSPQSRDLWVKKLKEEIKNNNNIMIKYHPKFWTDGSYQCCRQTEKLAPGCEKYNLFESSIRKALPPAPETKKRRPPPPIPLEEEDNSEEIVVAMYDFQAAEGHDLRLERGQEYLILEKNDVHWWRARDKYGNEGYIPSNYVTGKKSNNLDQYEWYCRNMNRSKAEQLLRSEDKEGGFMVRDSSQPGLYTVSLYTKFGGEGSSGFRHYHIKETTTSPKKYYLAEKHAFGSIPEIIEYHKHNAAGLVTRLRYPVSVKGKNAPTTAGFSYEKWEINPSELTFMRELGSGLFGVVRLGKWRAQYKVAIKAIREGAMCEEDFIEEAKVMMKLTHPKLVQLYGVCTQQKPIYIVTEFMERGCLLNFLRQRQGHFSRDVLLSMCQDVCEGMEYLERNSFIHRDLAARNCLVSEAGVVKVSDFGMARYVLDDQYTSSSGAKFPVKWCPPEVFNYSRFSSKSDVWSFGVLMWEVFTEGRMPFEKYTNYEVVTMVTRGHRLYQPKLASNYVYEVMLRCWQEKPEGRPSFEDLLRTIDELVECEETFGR
# test_conditions: at 0.1 µM
# Description: GSK_PKIS: TEC mean inhibition at 0.1 uM [Nanosyn]
readout: inhibition (%)
Give the number; % is assumed, so skip it.

Some solved entries appear below for comparison.
| structure_string | measured_number |
| --- | --- |
| Fc1ccc(-c2nn3ncccc3c2-c2ccnc(Nc3ccc4c(c3)OCCO4)n2)cc1 | 11.3 |
| CCn1cc(-c2ccnc3[nH]ccc23)c(-c2cccc(NC(=O)Nc3ccc(OCc4ccccc4)cc3)c2)n1 | -0.28 |
| CNC(=O)c1cccc(C#Cc2cncnc2Nc2ccc(OCc3cccc(F)c3)c(Cl)c2)c1 | 0.86 |
| COc1cc(/C=N/Nc2ncnc3[nH]ncc23)ccc1O | 8.19 |
| CCc1nn2ncccc2c1-c1ccnc(NC2CC2)n1 | 3.41 |

// "c1ccc(COc2ccc(Nc3ncnc4ccc(-c5ccco5)cc34)cc2)cc1" : inhibition value = 1.31

For reference, reported inhibition for "CCNC(=O)O[C@H]1CN[C@H](C#Cc2cc3ncnc(Nc4ccc(OCc5cccc(F)c5)c(Cl)c4)c3s2)C1" stands at 4.9

GET /value?item= "CCN(CC)S(=O)(=O)c1ccc(OC)c(Nc2ncc(-c3ccccc3)o2)c1" &field=inhibition returns 2.99

Record "COc1cccc(-n2ncc3c(N/N=C/c4ccc(F)cc4)ncnc32)c1" , field inhibition: 5

Kindly note the recorded inhibition for "COc1ccc(-c2cc3c(N)ncnc3o2)cc1" , which is -1.03

###

# measurement_target: Misshapen-like kinase 1 (Homo sapiens)
# test_conditions: at 1 µM
# Description: GSK_PKIS: MINK mean inhibition at 1 uM [Nanosyn]
readout: inhibition (%)
Give a bare numeral; the unit % is implied.

# count of solved cases: 3
| compound | inhibition [%] |
| --- | --- |
| [O-][S+]1CCN(Cc2ccc(-c3ccc4ncnc(Nc5ccc(OCc6cccc(F)c6)c(Cl)c5)c4c3)o2)CC1 | 8 |
| Clc1ccc(-c2nn3ncccc3c2-c2ccnc(Nc3ccccc3)n2)cc1 | 33 |
| COc1ccc(-c2nn3ncccc3c2-c2ccnc(Nc3ccc4c(c3)OCCO4)n2)cc1 | 7.26 |

// sample "CNC(=O)c1cc(-c2ccc(F)cc2)cc(-c2ccc(S(=O)(=O)N3CCCC3)cc2)c1N" , its inhibition was 5.6

Consider "Nc1nc(-c2cccc(Cl)c2)c(-c2ccc3ncccc3n2)s1" . Its measured inhibition is 46.9

// recorded inhibition for "O=C(Nc1n[nH]c2cc(-c3ccc(F)cc3)ccc12)C1CC1" : 56

Consider "CCN1CCC(CC(=O)Nc2n[nH]c3nnc(-c4cccc(F)c4F)cc23)CC1" . Its measured inhibition is 4.07

Data point: CC1=C(C(=O)Nc2cc(Cl)c3[nH]ncc3c2)C(c2ccc(C(F)(F)F)cc2)CC(=O)N1 (centres undefined) ; inhibition = 9.18

Form: compound = "NC(=O)c1sc(-n2cnc3ccc(C(F)(F)F)cc32)cc1OCc1ccccc1Br" ; inhibition = 11

Given item "N#Cc1c(NC(=O)CN2CCOCC2)sc2c1CCCC2" , the value recorded as its inhibition is 6.87

Memo: "CS(=O)(=O)CCNCc1coc(-c2ccc3ncnc(Nc4ccc(OCc5ccccc5)cc4)c3c2)c1" , reported inhibition: 4.66

Entry under test: "CCn1c(-c2nonc2N)nc2c(C#CC(C)(C)O)ncc(OC3CCNCC3)c21" . Its inhibition was 5.83

"COC(=O)Nc1nc2ccc(Oc3ccc(NC(=O)Nc4cccc(Cl)c4)cc3)cc2[nH]1" has a reported inhibition of 4.97

For record "COC(=O)c1sc(-n2cnc3cc(OC)c(OC)cc32)cc1OCc1ccccc1C(F)(F)F" the listed inhibition is 11.2

// sample "COc1ccc2[nH]c3c4[nH]c5ccc(OC)cc5c4c4c(c3c2c1)C(=O)NC4=O" , its inhibition was 84.8

Reported inhibition of "CC(C)(CO)CNC(=O)c1ccc2c(c1)/C(=N/Nc1ccc(S(N)(=O)=O)cc1)C(=O)N2" : 13.1

Entry "COc1ccc(CNC(=O)c2ccc(-c3cc(-c4nnc(C)o4)ccc3C)cc2)cc1" ; inhibition = 12.7

Kindly note the recorded inhibition for "CCNC(=O)O[C@H]1CN[C@H](C#Cc2cc3ncnc(Nc4ccc(OCc5cccc(F)c5)c(Cl)c4)c3s2)C1" , which is 5.58

# compound "Nc1nc(-c2ccc(F)cc2)c(-c2ccc3ncccc3n2)s1" ; its inhibition = 47.9

Field inhibition (entry "CCn1cc(-c2ccnc3[nH]ccc23)c(-c2cccc(NC(=O)Nc3ccc(OCc4ccccc4)cc3)c2)n1" ) reads 30.9

// inhibition value for "NS(=O)(=O)c1ccc(N/N=C2\C(=O)Nc3ccc4ncccc4c32)cc1" : 76.2

Entry under test: "COc1cc(N2CCN(C(C)C)CC2)ccc1Nc1nc(Nc2ccc(F)cc2C(N)=O)c2cc[nH]c2n1" . Its inhibition was 55

Just so you know, measured inhibition for "CS(=O)(=O)CCNCc1ccc(-c2ccc3ncnc(Nc4ccc(OCc5ccccc5)c(C(F)(F)F)c4)c3c2)o1" came out at 5.83

Entry "Cc1cccc(Nc2ncc(-c3ccccc3)o2)c1" — recorded inhibition = 10.2

Summary for this compound, "CCCN(CCS(C)(=O)=O)Cc1ccc(-c2ccc3ncnc(Nc4ccc(OCc5cccc(F)c5)c(Cl)c4)c3c2)o1" : inhibition is 7.61

Lookup result for "c1ccc(-c2nc3n(c2-c2ccc4c(c2)OCO4)CCC3)nc1" ; measured inhibition: 6.24

The measured inhibition associated with "c1ccc(COc2ccc(Nc3ncnc4ccc(-c5ccco5)cc34)cc2)cc1" reads 3.27

Record "CC(=O)NCc1cccc(C#Cc2cncnc2Nc2ccc(OCc3cccc(F)c3)c(Cl)c2)c1" , field inhibition: 8.64

Lab note: measured inhibition of "COc1cccc(-n2ncc3c(N/N=C/c4ccc(F)cc4)ncnc32)c1" was 17.2

###

In this section, each of the compounds is paired with its reported inhibition.
# Tested on: Mast/stem cell growth factor receptor Kit (Homo sapiens), P10721 [V560G]
# Sequence (P10721 whole entry V560G): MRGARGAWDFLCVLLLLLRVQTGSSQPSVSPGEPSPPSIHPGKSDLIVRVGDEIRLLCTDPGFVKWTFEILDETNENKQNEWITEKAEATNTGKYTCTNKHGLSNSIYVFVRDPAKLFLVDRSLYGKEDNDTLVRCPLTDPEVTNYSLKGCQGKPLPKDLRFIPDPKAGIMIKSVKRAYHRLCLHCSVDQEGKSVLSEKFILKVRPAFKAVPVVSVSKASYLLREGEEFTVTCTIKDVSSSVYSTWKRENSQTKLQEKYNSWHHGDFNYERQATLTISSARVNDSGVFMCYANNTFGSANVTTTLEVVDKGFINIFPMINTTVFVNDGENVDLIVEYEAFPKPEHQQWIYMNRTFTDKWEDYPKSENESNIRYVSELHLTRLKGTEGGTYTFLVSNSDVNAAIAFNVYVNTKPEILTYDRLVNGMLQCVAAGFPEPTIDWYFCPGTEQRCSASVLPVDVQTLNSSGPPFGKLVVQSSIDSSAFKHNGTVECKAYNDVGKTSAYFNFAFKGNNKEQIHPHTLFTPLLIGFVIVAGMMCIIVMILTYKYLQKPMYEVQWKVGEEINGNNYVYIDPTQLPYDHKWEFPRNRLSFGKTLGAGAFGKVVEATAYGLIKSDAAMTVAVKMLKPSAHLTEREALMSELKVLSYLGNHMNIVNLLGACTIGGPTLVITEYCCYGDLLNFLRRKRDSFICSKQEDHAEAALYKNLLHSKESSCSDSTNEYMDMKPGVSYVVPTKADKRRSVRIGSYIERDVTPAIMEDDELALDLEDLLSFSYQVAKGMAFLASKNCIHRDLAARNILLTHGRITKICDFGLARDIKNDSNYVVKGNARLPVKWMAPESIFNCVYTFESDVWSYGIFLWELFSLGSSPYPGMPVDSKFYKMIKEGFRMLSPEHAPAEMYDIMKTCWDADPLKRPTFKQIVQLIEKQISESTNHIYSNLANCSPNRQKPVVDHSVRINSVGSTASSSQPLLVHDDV
# test_conditions: at 1 µM
Write down the numeric answer in % and omit the unit.

As a guide, the following entries are already answered.
| structure_string | measured_number |
| --- | --- |
| CCn1c(-c2nonc2N)nc2c(C#CC(C)(C)O)nc(OC[C@H](N)c3ccccc3)cc21 | -0.5 |
| CCn1c(-c2nonc2N)nc2c(C#CC(C)(C)O)ncc(OC3CCNCC3)c21 | 0.39 |

What the record says about "Nc1ncc(-c2cccc(S(N)(=O)=O)c2)c2scc(-c3ccc(F)c(Cl)c3)c12" : inhibition is 50.5

The compound "CNC(=O)c1cncc(/C=C/c2ccccc2Cl)c1" showed inhibition equal to 8.8

# inhibition of "CCCN(CCS(C)(=O)=O)Cc1ccc(-c2ccc3ncnc(Nc4ccc(OCc5cccc(F)c5)c(Cl)c4)c3c2)o1" = 3.3

Lab book: inhibition of "COc1cccc(-n2ncc3c(N/N=C/c4ccc(F)cc4)ncnc32)c1" noted as 5.46

###

# measurement_target: Glycogen synthase kinase-3 beta (Homo sapiens) (UniProt P49841);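 note: values are mean percent inhibition of GSK3B activity, from the GSK Published Kinase Inhibitor Set (PKIS) screening dataset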
# Sequence (P49841 whole entry, looked up): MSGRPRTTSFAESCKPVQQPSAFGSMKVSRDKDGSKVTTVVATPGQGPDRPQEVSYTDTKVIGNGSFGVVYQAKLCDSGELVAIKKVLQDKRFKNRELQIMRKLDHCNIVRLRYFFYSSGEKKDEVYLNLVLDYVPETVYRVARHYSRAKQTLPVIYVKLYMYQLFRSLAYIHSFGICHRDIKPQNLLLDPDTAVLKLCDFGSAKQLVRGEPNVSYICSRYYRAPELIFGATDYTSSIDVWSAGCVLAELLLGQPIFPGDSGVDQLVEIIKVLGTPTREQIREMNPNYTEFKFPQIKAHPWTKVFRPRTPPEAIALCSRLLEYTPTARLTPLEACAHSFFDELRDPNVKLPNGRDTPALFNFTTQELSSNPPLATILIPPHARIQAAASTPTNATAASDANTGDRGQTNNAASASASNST
# test_conditions: at 0.1 µM
Entries and their measured inhibition follow.
Provide the reading as a plain figure in %.

Here's what some known entries look like.
| structure_string | readout | measured_number |
| --- | --- | --- |
| CC(=O)NCc1cccc(C#Cc2cncnc2Nc2ccc(OCc3cccc(F)c3)c(Cl)c2)c1 | inhibition | 2.82 |
| CNC(=O)c1cncc(/C=C/c2ccccc2Cl)c1 | inhibition | 3.39 |
| NS(=O)(=O)c1ccc(Nc2ncc(-c3ccccc3)o2)cc1 | inhibition | 11.4 |

Okay, next one:
The compound listed as "COc1cc(Nc2nccc(Nc3ccc4c(C)n[nH]c4c3)n2)cc(OC)c1OC" has a reported inhibition of 2.73

###

# Lookup of reported inhibition keyed by entry
# measurement_target: Serine/threonine-protein kinase Chk2 (Homo sapiens) (UniProt O96017)
# Sequence (O96017 whole entry): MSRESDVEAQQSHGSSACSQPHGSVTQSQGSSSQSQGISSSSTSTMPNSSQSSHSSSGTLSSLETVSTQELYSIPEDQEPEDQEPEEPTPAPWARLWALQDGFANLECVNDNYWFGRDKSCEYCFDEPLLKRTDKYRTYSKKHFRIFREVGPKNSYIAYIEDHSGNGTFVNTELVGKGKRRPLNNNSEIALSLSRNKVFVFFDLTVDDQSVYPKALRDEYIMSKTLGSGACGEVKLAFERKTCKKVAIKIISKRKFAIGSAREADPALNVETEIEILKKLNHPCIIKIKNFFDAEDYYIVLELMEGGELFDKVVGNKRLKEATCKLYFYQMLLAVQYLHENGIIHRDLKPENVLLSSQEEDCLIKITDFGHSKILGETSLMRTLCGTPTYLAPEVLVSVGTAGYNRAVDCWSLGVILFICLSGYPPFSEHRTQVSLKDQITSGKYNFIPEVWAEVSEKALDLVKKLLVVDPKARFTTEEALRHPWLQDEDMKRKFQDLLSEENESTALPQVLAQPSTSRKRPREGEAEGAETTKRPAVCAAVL
# test_conditions: at 0.1 µM
# Description: GSK_PKIS: CHEK2 mean inhibition at 0.1 uM [Nanosyn]
Value expressed in %; do not type the unit.

In the examples that follow, each entry is paired with its recorded inhibition.
| structure_string | measured_number |
| --- | --- |
| O=C(O[C@H]1CN[C@H](C#Cc2cc3ncnc(Nc4ccc(Cc5ccccc5)cc4)c3s2)C1)N1CCOCC1 | 0.28 |
| COC(=O)c1sc(-n2cnc3cc(OC)c(OC)cc32)cc1OCc1ccccc1C(F)(F)F | 3.73 |

Value of inhibition reported for the compound "COc1ccc(-c2nn3ncccc3c2-c2ccnc(Nc3ccc4c(c3)OCCO4)n2)cc1" is -1.05

Given item "FC(F)(F)c1cccc(-c2nn3ncccc3c2-c2ccnc(Nc3ccc4c(c3)OCCO4)n2)c1" , the value recorded as its inhibition is 1.74

###

Reported values of inhibition for individual entries
# measurement_target: Homeodomain-interacting protein kinase 4 (Homo sapiens);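 note: values are mean percent inhibition of HIPK4 from the GSK PKIS kinase screen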
# Sequence (whole entry): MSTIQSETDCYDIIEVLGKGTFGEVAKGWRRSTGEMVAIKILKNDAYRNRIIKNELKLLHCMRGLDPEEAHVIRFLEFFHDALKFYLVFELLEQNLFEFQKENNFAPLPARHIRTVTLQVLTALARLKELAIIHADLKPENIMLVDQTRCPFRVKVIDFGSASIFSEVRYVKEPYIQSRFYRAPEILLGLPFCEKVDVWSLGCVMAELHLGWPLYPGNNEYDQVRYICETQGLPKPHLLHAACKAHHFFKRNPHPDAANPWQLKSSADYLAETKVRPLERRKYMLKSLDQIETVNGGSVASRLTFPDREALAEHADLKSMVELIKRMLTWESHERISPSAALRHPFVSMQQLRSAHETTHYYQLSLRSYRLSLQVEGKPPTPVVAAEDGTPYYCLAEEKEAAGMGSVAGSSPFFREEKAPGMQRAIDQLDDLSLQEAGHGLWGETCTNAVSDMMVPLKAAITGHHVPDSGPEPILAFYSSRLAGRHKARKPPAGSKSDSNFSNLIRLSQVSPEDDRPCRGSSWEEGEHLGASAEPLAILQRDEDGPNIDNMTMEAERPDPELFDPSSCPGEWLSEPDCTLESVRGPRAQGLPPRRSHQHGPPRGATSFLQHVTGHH
# test_conditions: at 1 µM
Quick reminder: number only, in %, skip the unit.

| structure_string | inhibition / % |
| --- | --- |
| c1ccc(-c2nc3n(c2-c2ccc4c(c2)OCO4)CCC3)nc1 | -0.33 |
| NS(=O)(=O)c1ccc(N/N=C2\C(=O)Nc3ccc4ncccc4c32)cc1 | 40 |
| FC(F)(F)c1cccc(-c2nn3ncccc3c2-c2ccnc(Nc3ccc4c(c3)OCCO4)n2)c1 | 3.75 |
| CN(C)CCOc1ccc(-c2nc(-c3ccncc3)c(-c3ccc4c(c3)CC/C4=N\O)[nH]2)cc1 | 8.61 |
| COc1cc(/C=N/Nc2ncnc3[nH]ncc23)ccc1O | 23 |

Query compound follows.
With Homeodomain-interacting protein kinase 4 (Homo sapiens) as the test system, "CN1CCC(n2cnc(-c3ccc(F)cc3)c2-c2ccnc(Nc3ccccc3)n2)CC1" showed inhibition of 7.29
